target: canine IL-31 (Canine_IL31) (canine); test: SPR (Biacore), immobilised IL-31, 1:1 fit
Sequence (chain, as listed by the source limits assumed, form in doubt): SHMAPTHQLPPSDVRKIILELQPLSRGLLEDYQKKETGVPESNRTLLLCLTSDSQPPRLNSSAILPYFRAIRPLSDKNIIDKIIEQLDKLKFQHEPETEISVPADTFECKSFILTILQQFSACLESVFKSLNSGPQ
quantity.measured: kon (M⁻¹ s⁻¹)
// note: answer is a bare numeric in M⁻¹ s⁻¹

>>> obs_value("Feline 15H05 1.1 FW2 (antibody, V domains shown) VH: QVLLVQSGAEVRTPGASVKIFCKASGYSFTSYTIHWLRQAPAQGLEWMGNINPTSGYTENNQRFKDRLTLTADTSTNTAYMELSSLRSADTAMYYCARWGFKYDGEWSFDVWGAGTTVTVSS VL: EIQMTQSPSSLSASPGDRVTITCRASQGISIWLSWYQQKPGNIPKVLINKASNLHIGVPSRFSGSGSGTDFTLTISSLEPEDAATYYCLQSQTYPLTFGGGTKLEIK")
384000

We now examine a further binder.
Query string: Which kon reading was recorded for the binder Feline 11E12 1.1 (antibody, V domains shown) VH: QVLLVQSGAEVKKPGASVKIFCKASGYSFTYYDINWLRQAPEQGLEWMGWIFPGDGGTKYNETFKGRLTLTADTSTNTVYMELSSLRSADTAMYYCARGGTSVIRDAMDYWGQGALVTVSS VL: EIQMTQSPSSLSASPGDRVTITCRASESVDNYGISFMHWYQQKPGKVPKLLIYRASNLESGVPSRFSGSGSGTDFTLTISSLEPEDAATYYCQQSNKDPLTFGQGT ?
Result string: 185000
